Biological target: human recombinant HDAC6 (Homo sapiens, UniProt Q9UBN7)
Experiment: HDAC6 enzyme activity inhibition assay (HDAC Fluorimetric Drug Discovery Kit)
Conditions: 30° C. 60 minutes
metric: IC50

Prompt line: Bench note: what IC50 did FC(F)(F)c1nnc(-c2cnc(NC3(c4ccccn4)CCC3)nc2)o1 show?
Response line: 58 nM

Prompt line: FC(F)c1nnc(-c2cnc(NC3(c4cccnc4)CCC3)nc2)o1 ?
Response line: 40 nM

Prompt line: Cc1ccc(S(=O)(=O)CC2(Nc3ncc(-c4nnc(C(F)F)o4)cn3)CCC2)cc1 ?
Response line: > 10000 nM

###

Measured log10 of IC50, listed per entry.
Target: human recombinant HDAC6 (Homo sapiens)
Assay: HDAC6 enzyme activity inhibition assay (HDAC Fluorimetric Drug Discovery Kit)
Settings: 30° C. 60 minutes
Method: In order to examine the HDAC6 selectivity of the compounds of formula I of the present invention by HDAC1 and HDAC6 enzymatic activity inhibition assays, an experiment was performed using a conventional substance as a control. HDAC enzyme activity was measured using a HDAC Fluorimetric Drug Discovery Kit (BML-AK511, 516, Enzo Life Science). […] Based on the resulting values, each IC50 value was calculated using GraphPad Prism4.0 program.
Log scale reminder: IC50 in nM, then log10 taken.

Field: example entries. Status: answers known.
compound: Fc1ccc(C2(Nc3ncc(-c4nnc(C(F)(F)F)o4)cn3)CCC2)c(Cl)c1 [Compound 1960]
log10 of IC50: 3.09
//
compound: FC(F)c1nnc(-c2cnc(NC3(c4ccccc4)CCCCC3)nc2)o1 [Compound 1581]
log10 of IC50: 2.13

Prompt line: Bench note: what log10 of IC50 did FC(F)c1nnc(-c2cnc(NC3(c4ccc(Cl)cc4)CC3)nc2)o1 [Compound 2052] show?
Response line: 1.88

Prompt line: Fc1cccc(C2(Nc3ncc(-c4nnc(C(F)F)o4)cn3)CCC2)c1 [Compound 1607] ?
Response line: 1.51

Prompt line: Fc1ccc(C2(Nc3ncc(-c4nnc(C(F)F)o4)cn3)CC2)cc1F [Compound 2058] ?
Response line: 1.59

###

Target: human recombinant HDAC6 (Homo sapiens, UniProt Q9UBN7)
Sequence (Q9UBN7 1-1215): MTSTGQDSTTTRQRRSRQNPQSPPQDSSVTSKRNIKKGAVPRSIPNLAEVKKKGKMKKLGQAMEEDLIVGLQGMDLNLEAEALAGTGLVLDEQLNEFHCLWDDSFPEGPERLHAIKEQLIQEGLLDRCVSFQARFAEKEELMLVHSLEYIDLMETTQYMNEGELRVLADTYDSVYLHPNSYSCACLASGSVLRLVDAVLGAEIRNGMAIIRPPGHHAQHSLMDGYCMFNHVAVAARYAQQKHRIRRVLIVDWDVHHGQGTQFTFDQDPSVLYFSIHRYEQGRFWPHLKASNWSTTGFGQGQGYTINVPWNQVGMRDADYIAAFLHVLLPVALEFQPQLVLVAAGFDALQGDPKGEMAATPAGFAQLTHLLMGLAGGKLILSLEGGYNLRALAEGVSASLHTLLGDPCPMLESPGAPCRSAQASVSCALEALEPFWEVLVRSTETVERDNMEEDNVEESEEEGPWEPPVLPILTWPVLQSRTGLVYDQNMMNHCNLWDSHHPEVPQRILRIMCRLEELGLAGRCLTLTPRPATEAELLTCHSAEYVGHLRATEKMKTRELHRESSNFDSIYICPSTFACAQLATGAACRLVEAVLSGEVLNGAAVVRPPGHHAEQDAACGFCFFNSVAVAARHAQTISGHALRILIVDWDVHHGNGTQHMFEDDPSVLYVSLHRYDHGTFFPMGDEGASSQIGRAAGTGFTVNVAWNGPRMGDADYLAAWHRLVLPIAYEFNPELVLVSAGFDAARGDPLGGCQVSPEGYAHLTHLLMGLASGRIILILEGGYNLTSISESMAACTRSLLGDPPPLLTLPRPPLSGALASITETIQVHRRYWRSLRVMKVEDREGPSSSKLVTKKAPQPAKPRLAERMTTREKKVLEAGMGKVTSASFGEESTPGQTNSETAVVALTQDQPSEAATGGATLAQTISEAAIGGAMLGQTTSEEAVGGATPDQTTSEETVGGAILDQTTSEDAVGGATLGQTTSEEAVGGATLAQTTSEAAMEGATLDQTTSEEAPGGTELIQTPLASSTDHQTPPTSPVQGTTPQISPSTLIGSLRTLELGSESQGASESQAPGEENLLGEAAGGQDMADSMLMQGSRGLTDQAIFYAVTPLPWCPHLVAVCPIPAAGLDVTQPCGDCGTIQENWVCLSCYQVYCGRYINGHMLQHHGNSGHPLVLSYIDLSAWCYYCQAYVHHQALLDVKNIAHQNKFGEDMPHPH
Experiment: HDAC6 enzyme activity inhibition assay (HDAC Fluorimetric Drug Discovery Kit)
Conditions: 30° C. 60 minutes
Assign labels as follows, please: Satisfied for IC50 below 60 nM; Not satisfied for IC50 equal to or exceeding 60 nM.

molecular.string: CCN1CCC(c2ccc(C3(Nc4ncc(-c5nnc(C(F)F)o5)cn4)CCC3)cc2)CC1
class: Not satisfied
--
molecular.string: Fc1ccc(C2(Nc3ncc(-c4nnc(C(F)F)o4)cn3)CC2)cc1Cl
class: Satisfied
--
molecular.string: FC(F)(F)c1nnc(-c2cnc(NC3(c4ccccc4)CC3)nc2)o1
class: Not satisfied
--
molecular.string: FC(F)c1nnc(-c2cnc(NC3(c4ccc5c(c4)OCO5)CCC3)nc2)o1
class: Not satisfied
--
molecular.string: FC(F)(F)c1nnc(-c2cnc(NC3(c4ccccc4)CCCC3)nc2)o1
class: Not satisfied
--
molecular.string: FC(F)c1nnc(-c2cnc(NC3(c4cccc(C(F)(F)F)c4)CCC3)nc2)o1
class: Satisfied
--
molecular.string: Fc1ccc(C2(Nc3ncc(-c4nnc(C(F)F)o4)cn3)CCC2)cc1N1CCOCC1
class: Not satisfied
--
molecular.string: FC(F)c1nnc(-c2cnc(NC3(c4ccc(N5CCCCC5)cc4)CCC3)nc2)o1
class: Not satisfied

Prompt line: Strictly below 60 nM in IC50? COc1ccc(C2(Nc3ncc(-c4nnc(C(F)F)o4)cn3)CC2)cc1
Response line: Satisfied

Prompt line: FC(F)c1nnc(-c2cnc(NC3(c4ccsc4)CCC3)nc2)o1 ?
Response line: Not satisfied

Prompt line: FC(F)c1nnc(-c2cnc(NC3(c4ccc(C5CCN(C6COC6)CC5)cc4)CCC3)nc2)o1 ?
Response line: Not satisfied

Prompt line: Fc1ccc(Cl)cc1C1(Nc2ncc(-c3nnc(C(F)(F)F)o3)cn2)CCC1 ?
Response line: Not satisfied

Prompt line: COc1cccc(C2(Nc3ncc(-c4nnc(C(F)F)o4)cn3)CCC2)c1 ?
Response line: Satisfied

Prompt line: Fc1cc(Cl)ccc1C1(Nc2ncc(-c3nnc(C(F)F)o3)cn2)CC1 ?
Response line: Satisfied

Prompt line: FC(F)c1nnc(-c2cnc(NC3(c4c(Cl)cccc4Cl)CCC3)nc2)o1 ?
Response line: Not satisfied
